assay: Compound cytotoxicity, XTT-based colorimetric assay; format: cell-based; conditions: human; uninfected MT2 cells, day 4, XTT; read-out: CC50
// values below are reported CC50 at 4 days

Worked cases, answers included:
molecule	CC50 at 4 days
Cc1cc(C2CCC(F)(F)CC2)nc2nc([C@H](Cc3cc(F)cc(F)c3)NC(=O)Cn3nc(C4CC4)c4c3C[C@@H]3C[C@H]43)n(-c3ccc(Cl)c4c(NS(C)(=O)=O)nn(CCN5CCC(F)(F)C5)c34)c(=O)c12 (atropisomer, axis not shown; (P))	> 50 nM
CC1(C)CN(CCn2nc(NS(C)(=O)=O)c3c(Cl)ccc(-n4c([C@H](Cc5cc(F)cc(F)c5)NC(=O)Cn5nc(C6CC6)c6c5C[C@@H]5C[C@H]65)nc5nc(C6CCC(F)(F)CC6)ccc5c4=O)c32)CC(C)(C)O1 (atropisomer, axis not shown; (P))	> 20 nM
Cc1cc(C2CCC(F)(F)CC2)nc2nc([C@H](Cc3cc(F)cc(F)c3)NC(=O)Cn3nc(C4CC4)c4c3C[C@@H]3C[C@H]43)n(-c3ccc(Cl)c4c(NS(C)(=O)=O)nn(CCN5CCC(C)(F)C5)c34)c(=O)c12 (stereo partly shown)	> 50 nM

**Query** Note down CC50 at 4 days recorded for COCCNCCn1nc(NS(C)(=O)=O)c2c(Cl)ccc(-n3c([C@H](Cc4cc(F)cc(F)c4)NC(=O)Cn4nc(C5CC5)c5c4C[C@@H]4C[C@H]54)nc4nc(C5CCC(F)(F)CC5)cc(C)c4c3=O)c21 (atropisomer, axis not shown; (P))
**Result** > 50 nM

* * *

test: Compound cytotoxicity, XTT-based colorimetric assay; assay type: cell-based; conditions: human; uninfected MT2 cells, day 4, XTT; read-out: CC50
// values below are reported CC50 at 4 days

**Query** Note down CC50 at 4 days recorded for Cc1cc(C2CCC(F)(F)CC2)nc2nc([C@H](Cc3cc(F)cc(F)c3)NC(=O)Cn3nc(C(F)F)c4c3C(F)(F)[C@@H]3C[C@H]43)n(-c3ccc(Cl)c4c(NS(C)(=O)=O)nn(CC(=O)N5C[C@H]6C[C@H]6C5)c34)c(=O)c12 (atropisomer, axis not shown; (P))
**Result** > 0.02 µM

**Query** Note down CC50 at 4 days recorded for COCCCn1nc(NS(C)(=O)=O)c2c(Cl)ccc(-n3c([C@H](Cc4cc(F)cc(F)c4)NC(=O)Cn4nc(C(F)F)c5c4C(F)(F)[C@@H]4C[C@H]54)nc4nc(C5CCC(F)(F)CC5)cc(NCC5CCOCC5)c4c3=O)c21 (atropisomer, axis not shown; (P))
**Result** > 0.02 µM

**Query** Note down CC50 at 4 days recorded for Cc1cc(C2CCC(F)(F)CC2)nc2nc([C@H](Cc3cc(F)cc(F)c3)NC(=O)Cn3nc(C(F)F)c4c3C(F)(F)[C@@H]3C[C@H]43)n(-c3ccc(Cl)c4c(NS(C)(=O)=O)nn(CCN5CCC(F)(F)C5)c34)c(=O)c12 (atropisomer, axis not shown; (P))
**Result** > 0.05 µM

**Query** Note down CC50 at 4 days recorded for CS(=O)(=O)Nc1nn(CCN2CCC(F)(F)C2)c2c(-n3c([C@H](Cc4cc(F)cc(F)c4)NC(=O)Cn4nc(C5CC5)c5c4C[C@@H]4C[C@H]54)nc4nc(C5CCC(F)(F)CC5)ccc4c3=O)ccc(Cl)c12 (atropisomer, axis not shown; (P))
**Result** > 0.05 µM

Every entry's value here was drawn from patent US12594276B2.
